target_or_test_system: beta-catenin/TCF4 engagement (Homo sapiens, UniProt P35222)
Construct: expressed in transfected cells; host or cells: HEK293
Sequence (P35222 1-781): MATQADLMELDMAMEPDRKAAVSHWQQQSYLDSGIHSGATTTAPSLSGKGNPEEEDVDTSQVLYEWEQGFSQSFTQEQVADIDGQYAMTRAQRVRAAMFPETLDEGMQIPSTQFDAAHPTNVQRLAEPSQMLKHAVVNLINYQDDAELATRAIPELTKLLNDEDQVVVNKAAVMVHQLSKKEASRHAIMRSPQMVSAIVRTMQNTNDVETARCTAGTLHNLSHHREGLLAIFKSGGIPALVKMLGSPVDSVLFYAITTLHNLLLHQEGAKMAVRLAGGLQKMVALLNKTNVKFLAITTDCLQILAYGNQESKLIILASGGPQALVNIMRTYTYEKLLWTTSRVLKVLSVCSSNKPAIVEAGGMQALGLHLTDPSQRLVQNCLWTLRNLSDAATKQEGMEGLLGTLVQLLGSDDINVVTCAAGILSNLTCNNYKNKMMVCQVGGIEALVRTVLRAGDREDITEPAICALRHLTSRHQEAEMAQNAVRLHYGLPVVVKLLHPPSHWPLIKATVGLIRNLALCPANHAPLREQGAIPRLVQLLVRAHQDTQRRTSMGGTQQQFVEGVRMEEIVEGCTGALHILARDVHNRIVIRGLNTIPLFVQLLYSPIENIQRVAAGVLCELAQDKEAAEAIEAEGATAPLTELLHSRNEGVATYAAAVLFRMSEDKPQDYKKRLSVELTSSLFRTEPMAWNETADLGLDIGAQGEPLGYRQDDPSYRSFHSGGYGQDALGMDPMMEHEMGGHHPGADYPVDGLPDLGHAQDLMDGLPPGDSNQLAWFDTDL
assay_protocol: Nano-BRET target engagement assay (B-cat-Halo & TCF4-Luc in HEK293 cells)
Assay type: cell-based
condition_info: absolute IC50; read-out: NanoBRET Abs IC50
value_type: IC50

INSERT INTO assay_data (compound, value_type, meas_value) VALUES
  ('CC(=O)N1CCC[C@]12CC=CCCCC1(CCCC=CCCCOC(=O)N3CC[C@@](C(=O)N[C@@H](Cc4ccccc4C(F)(F)F)C(=O)N[C@@H](Cc4csc5ccccc45)C(=O)N[C@@H](CCC(N)=O)C(=O)N[C@@H](CC(C)C)C(=O)N[C@@H](CCC(N)=O)C(N)=O)(C3)NC(=O)[C@H](CC(C)C)NC(=O)[C@H](Cc3ccccc3)NC(=O)[C@H](C)NC(=O)[C@H](C)NC(=O)[C@H](Cc3cccc(C(=O)O)c3)NC(=O)[C@H](CC(=O)O)NC1=O)NC(=O)[C@H](CC(C)(C)C)NC(=O)[C@H](CC(=O)O)NC2=O (some centres unmarked)', 'IC50', '4 µM'),
  ('CC(=O)N1CCC[C@]12CC=CCCCC1(CCCC=CCCCOC(=O)N3CC[C@@](C(=O)N[C@@H](Cc4ccccc4C(F)(F)F)C(=O)N[C@@H](Cc4csc5ccccc45)C(=O)N[C@@H](CCC(=O)N(C)C)C(N)=O)(C3)NC(=O)[C@H](CCC(=O)N(C)C)NC(=O)[C@H](Cc3ccccc3)NC(=O)[C@H](C)NC(=O)[C@H](C)NC(=O)[C@H](Cc3cccc(C(=O)O)c3)NC(=O)[C@H](CC(=O)O)NC1=O)NC(=O)[C@H](CC(C)(C)C)NC(=O)[C@H](CC(=O)O)NC2=O (some centres unmarked) [I-2535]', 'IC50', '3.7 µM');

These data points were gathered from patent US20240116985A1.
